# EXPERIMENT: activity coefficient (dimensionless); of the first substance listed, at infinite dilution; xn = mol fraction of the nth substance listed
# TEST_SETTINGS: 333.15 K; 101 kPa; Liquid; Chromatography; x1 = 0
PARAMETER: activity coefficient

Below, each entry is followed by its recorded activity coefficient result.
CCOC(C)=O [ethyl acetate] + CCCC[N+]1(C)CCCC1.O=C1O[B-]2(OC1=O)OC(=O)C(=O)O2: 1.75
COCCOC [1,2-dimethoxyethane] + CCCC[N+]1(C)CCCC1.N#C[B-](C#N)(C#N)C#N: 0.56
CCC(C)=O [butanone] + CCCC[N+]1(C)CCCC1.N#C[B-](C#N)(C#N)C#N: 0.564
COC(C)=O [methyl ethanoate] + CCCC[N+]1(C)CCCC1.O=C1O[B-]2(OC1=O)OC(=O)C(=O)O2: 1.03
CC#N [acetonitrile] + CCCC[N+]1(C)CCCC1.N#C[B-](C#N)(C#N)C#N: 0.427
FC(F)(F)C(Cl)Br (stereo unspecified) [1-bromo-1-chloro-2,2,2-trifluoroethane] + CCCC[N+]1(C)CCCC1.O=C1O[B-]2(OC1=O)OC(=O)C(=O)O2: 1.61

1. CCC1CCCCC1 [ethylcyclohexane] + CCCC[N+]1(C)CCCC1.N#C[B-](C#N)(C#N)C#N
2. ClC(Cl)Cl [trichloromethane] + CCCC[N+]1(C)CCCC1.O=C1O[B-]2(OC1=O)OC(=O)C(=O)O2
3. COC(C)(C)C [2-methoxy-2-methylpropane] + CCCC[N+]1(C)CCCC1.N#C[B-](C#N)(C#N)C#N
4. ClC(Cl)Cl [trichloromethane] + CCCC[N+]1(C)CCCC1.N#C[B-](C#N)(C#N)C#N
### Prompt Ascending sort, activity coefficient. Dear reader, please state the labels in the requested order.
### Response 4, 2, 3, 1
(4: 0.654, 2: 1, 3: 2.45, 1: 15.8)

I. c1ccsc1 [thiophene] + CCCC[N+]1(C)CCCC1.O=C1O[B-]2(OC1=O)OC(=O)C(=O)O2
II. CC(C)OC(C)C [diisopropyl ether] + CCCC[N+]1(C)CCCC1.O=C1O[B-]2(OC1=O)OC(=O)C(=O)O2
III. CC1CCCCC1 [methylcyclohexane] + CCCC[N+]1(C)CCCC1.N#C[B-](C#N)(C#N)C#N
### Prompt Ascending sort, activity coefficient. Dear reader, please state the labels in the requested order.
### Response I, III, II
(I: 1.13, III: 11.2, II: 18.4)

###

# EXPERIMENT: activity coefficient (dimensionless); of the first substance listed, at infinite dilution; xn = mol fraction of the nth substance listed
# TEST_SETTINGS: 353.15 K; 101 kPa; Liquid; Chromatography; x1 = 0
PARAMETER: activity coefficient

Below, each entry is followed by its recorded activity coefficient result.
CCO [ethanol] + CCCC[N+]1(C)CCCC1.N#C[B-](C#N)(C#N)C#N: 1.02
c1ccccc1 [benzene] + CCCC[N+]1(C)CCCC1.O=C1O[B-]2(OC1=O)OC(=O)C(=O)O2: 1.61
COC(=O)OC [dimethyl carbonate] + CCCC[N+]1(C)CCCC1.O=C1O[B-]2(OC1=O)OC(=O)C(=O)O2: 0.87
FC(F)(F)C(Cl)Br (configuration not stated) [1-bromo-1-chloro-2,2,2-trifluoroethane] + CCCC[N+]1(C)CCCC1.O=C1O[B-]2(OC1=O)OC(=O)C(=O)O2: 1.72
COCCOC [1,2-dimethoxyethane] + CCCC[N+]1(C)CCCC1.O=C1O[B-]2(OC1=O)OC(=O)C(=O)O2: 1.23

I. COC(C)=O [methyl ethanoate] + CCCC[N+]1(C)CCCC1.O=C1O[B-]2(OC1=O)OC(=O)C(=O)O2
II. CCCCCCC [heptane] + CCCC[N+]1(C)CCCC1.O=C1O[B-]2(OC1=O)OC(=O)C(=O)O2
### Prompt In the pair I and II , the larger recorded activity coefficient belongs to which? Refer to your chosen entry by its label in the reply.
### Response II

###

# EXPERIMENT: activity coefficient (dimensionless); of the first substance listed, at infinite dilution; xn = mol fraction of the nth substance listed
# TEST_SETTINGS: 343.15 K; 101 kPa; Liquid; Chromatography; x1 = 0
PARAMETER: activity coefficient

Below, each entry is followed by its recorded activity coefficient result.
ClC(Cl)Cl [trichloromethane] + CCCC[N+]1(C)CCCC1.N#C[B-](C#N)(C#N)C#N: 0.683
CCOC(C)=O [ethyl acetate] + CCCC[N+]1(C)CCCC1.N#C[B-](C#N)(C#N)C#N: 0.982
COCCOC [1,2-dimethoxyethane] + CCCC[N+]1(C)CCCC1.O=C1O[B-]2(OC1=O)OC(=O)C(=O)O2: 1.2

I. C1CCCCC1 [cyclohexane] + CCCC[N+]1(C)CCCC1.O=C1O[B-]2(OC1=O)OC(=O)C(=O)O2
II. COC(C)=O [methyl ethanoate] + CCCC[N+]1(C)CCCC1.O=C1O[B-]2(OC1=O)OC(=O)C(=O)O2
III. ClCCl [dichloromethane] + CCCC[N+]1(C)CCCC1.N#C[B-](C#N)(C#N)C#N
### Prompt Ascending sort, activity coefficient. Dear reader, please state the labels in the requested order.
### Response III, II, I
(III: 0.574, II: 1.04, I: 17.9)

###

# EXPERIMENT: activity coefficient (dimensionless); of the first substance listed, at infinite dilution; xn = mol fraction of the nth substance listed
# TEST_SETTINGS: 343.15 K; 101 kPa; Liquid; Chromatography; x1 = 0
PARAMETER: activity coefficient

Below, each entry is followed by its recorded activity coefficient result.
CCCCCCC [heptane] + CCCC[N+]1(C)CCCC1.N#C[B-](C#N)(C#N)C#N: 19.7
C1CCOC1 [tetrahydrofuran] + CCCC[N+]1(C)CCCC1.N#C[B-](C#N)(C#N)C#N: 0.667

A. CC1CCCCC1 [methylcyclohexane] + CCCC[N+]1(C)CCCC1.O=C1O[B-]2(OC1=O)OC(=O)C(=O)O2
B. COC(C)=O [methyl ethanoate] + CCCC[N+]1(C)CCCC1.N#C[B-](C#N)(C#N)C#N
C. C=CCCCCCC [oct-1-ene] + CCCC[N+]1(C)CCCC1.N#C[B-](C#N)(C#N)C#N
### Prompt Sort these molecules on activity coefficient so the largest reading comes first. Dear reader, please state the labels in the requested order.
### Response A, C, B

1. CC#N [acetonitrile] + CCCC[N+]1(C)CCCC1.N#C[B-](C#N)(C#N)C#N
2. C=CCCCCCC [oct-1-ene] + CCCC[N+]1(C)CCCC1.O=C1O[B-]2(OC1=O)OC(=O)C(=O)O2
3. CCc1ccccc1 [ethylbenzene] + CCCC[N+]1(C)CCCC1.O=C1O[B-]2(OC1=O)OC(=O)C(=O)O2
4. FC(F)(F)C(Cl)Br (stereo unspecified) [1-bromo-1-chloro-2,2,2-trifluoroethane] + CCCC[N+]1(C)CCCC1.O=C1O[B-]2(OC1=O)OC(=O)C(=O)O2
### Prompt Ascending sort, activity coefficient. Dear reader, please state the labels in the requested order.
### Response 1, 4, 3, 2

###

# EXPERIMENT: activity coefficient (dimensionless); of the first substance listed, at infinite dilution; xn = mol fraction of the nth substance listed
# TEST_SETTINGS: 353.15 K; 101 kPa; Liquid; Chromatography; x1 = 0
PARAMETER: activity coefficient

c1ccsc1 [thiophene] + CCCC[N+]1(C)CCCC1.O=C1O[B-]2(OC1=O)OC(=O)C(=O)O2: 1.12

A. COC(C)(C)C [2-methoxy-2-methylpropane] + CCCC[N+]1(C)CCCC1.N#C[B-](C#N)(C#N)C#N
B. CCOC(C)=O [ethyl acetate] + CCCC[N+]1(C)CCCC1.N#C[B-](C#N)(C#N)C#N
C. CCC1CCCCC1 [ethylcyclohexane] + CCCC[N+]1(C)CCCC1.N#C[B-](C#N)(C#N)C#N
### Prompt Ascending sort, activity coefficient. Dear reader, please state the labels in the requested order.
### Response B, A, C
(B: 1, A: 2.52, C: 13.9)

###

# EXPERIMENT: activity coefficient (dimensionless); of the first substance listed, at infinite dilution; xn = mol fraction of the nth substance listed
# TEST_SETTINGS: 318.15 K; 101 kPa; Liquid; Chromatography; x1 = 0
PARAMETER: activity coefficient

Below, each entry is followed by its recorded activity coefficient result.
C1CCOC1 [tetrahydrofuran] + CCCC[N+]1(C)CCCC1.N#C[B-](C#N)(C#N)C#N: 0.622
CCOC(C)=O [ethyl acetate] + CCCC[N+]1(C)CCCC1.N#C[B-](C#N)(C#N)C#N: 0.942
CCC1CCCCC1 [ethylcyclohexane] + CCCC[N+]1(C)CCCC1.N#C[B-](C#N)(C#N)C#N: 17.6
ClC(Cl)(Cl)Cl [tetrachloromethane] + CCCC[N+]1(C)CCCC1.N#C[B-](C#N)(C#N)C#N: 2.4

P. FC(F)(F)C(Cl)Br (configuration not stated) [1-bromo-1-chloro-2,2,2-trifluoroethane] + CCCC[N+]1(C)CCCC1.N#C[B-](C#N)(C#N)C#N
Q. CCCO [propan-1-ol] + CCCC[N+]1(C)CCCC1.N#C[B-](C#N)(C#N)C#N
R. CCCCCCC [heptane] + CCCC[N+]1(C)CCCC1.N#C[B-](C#N)(C#N)C#N
### Prompt Ascending sort, activity coefficient. Dear reader, please state the labels in the requested order.
### Response P, Q, R

A. c1ccsc1 [thiophene] + CCCC[N+]1(C)CCCC1.N#C[B-](C#N)(C#N)C#N
B. CC1CCCCC1 [methylcyclohexane] + CCCC[N+]1(C)CCCC1.N#C[B-](C#N)(C#N)C#N
### Prompt In the pair A and B , the larger recorded activity coefficient belongs to which? Refer to your chosen entry by its label in the reply.
### Response B
(B: 12.2, A: 0.681)
